Reference source for all entries: patent US20110098212A1

# target: human chemokine receptor CCR5 (human), P51681
# Sequence (P51681 whole entry): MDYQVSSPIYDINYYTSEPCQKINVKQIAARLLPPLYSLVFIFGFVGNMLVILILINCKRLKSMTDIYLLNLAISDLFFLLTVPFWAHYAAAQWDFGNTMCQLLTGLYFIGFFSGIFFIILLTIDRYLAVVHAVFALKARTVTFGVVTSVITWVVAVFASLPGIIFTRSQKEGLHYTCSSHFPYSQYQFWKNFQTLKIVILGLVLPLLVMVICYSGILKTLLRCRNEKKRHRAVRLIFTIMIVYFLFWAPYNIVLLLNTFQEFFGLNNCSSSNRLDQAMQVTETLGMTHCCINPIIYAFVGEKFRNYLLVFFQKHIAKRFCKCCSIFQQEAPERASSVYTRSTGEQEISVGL
observed-property: IC50 (nM)
# unit: nM | format: bare number

Entry under review: FICSSPDAELFSEKSRMSSSVLLGCLLCCMDWSAAVPV (modifications not checked) [U83A-Npep, N-terminal spliced truncated form of U83A] . Reported IC50? 8.3
